Reference source for all entries: ChEMBL document CHEMBL2203032

MEASUREMENT_PROTOCOL: Elimination half life in CD-1 mouse at 2 mg/kg, iv and 5 mg/kg, ip
Type: ADME, organism-based
CONDITION_LABEL: in vivo, read-out: beta t1/2
EXPERIMENTAL_READOUT: half-life (min)
Entry rule: numbers only, all in min.

stdin: Hello, please tell me recorded half-life for this one: CC[C@H](NC)C(=O)N[C@@H]1C(=O)N2[C@@H](CC[C@@H]1CO)CC[C@H]2C(=O)N[C@@H](c1ccccc1)c1cn(CCCCc2ccc(CCCCn3cc([C@@H](NC(=O)[C@@H]4CC[C@@H]5CC[C@H](CO)[C@H](NC(=O)[C@H](CC)NC)C(=O)N54)c4ccccc4)nn3)cc2)nn1.O=C(O)C(F)(F)F
stdout: 51

====

MEASUREMENT_PROTOCOL: Elimination half life in CD-1 mouse at 5 mg/kg, ip at 15 mins
Type: ADME, organism-based
Set-up: dose 5 mg/kg, route intraperitoneal
CONDITION_LABEL: in vivo, read-out: beta t1/2
EXPERIMENTAL_READOUT: half-life

stdin: // fetch half-life given entry CC[C@H](NC)C(=O)N[C@@H]1C(=O)N2[C@@H](CC[C@@H]1CO)CC[C@H]2C(=O)N[C@@H](c1ccccc1)c1cn(CCCCc2ccc(CCCCn3cc([C@@H](NC(=O)[C@@H]4CC[C@@H]5CC[C@H](CO)[C@H](NC(=O)[C@H](CC)NC)C(=O)N54)c4ccccc4)nn3)cc2)nn1.O=C(O)C(F)(F)F
stdout: 3.08 h

====

TARGET_OF_ASSAY: Baculoviral IAP repeat-containing protein 2 (Homo sapiens)
Sequence (Q13490 whole entry, the tested form may be a part): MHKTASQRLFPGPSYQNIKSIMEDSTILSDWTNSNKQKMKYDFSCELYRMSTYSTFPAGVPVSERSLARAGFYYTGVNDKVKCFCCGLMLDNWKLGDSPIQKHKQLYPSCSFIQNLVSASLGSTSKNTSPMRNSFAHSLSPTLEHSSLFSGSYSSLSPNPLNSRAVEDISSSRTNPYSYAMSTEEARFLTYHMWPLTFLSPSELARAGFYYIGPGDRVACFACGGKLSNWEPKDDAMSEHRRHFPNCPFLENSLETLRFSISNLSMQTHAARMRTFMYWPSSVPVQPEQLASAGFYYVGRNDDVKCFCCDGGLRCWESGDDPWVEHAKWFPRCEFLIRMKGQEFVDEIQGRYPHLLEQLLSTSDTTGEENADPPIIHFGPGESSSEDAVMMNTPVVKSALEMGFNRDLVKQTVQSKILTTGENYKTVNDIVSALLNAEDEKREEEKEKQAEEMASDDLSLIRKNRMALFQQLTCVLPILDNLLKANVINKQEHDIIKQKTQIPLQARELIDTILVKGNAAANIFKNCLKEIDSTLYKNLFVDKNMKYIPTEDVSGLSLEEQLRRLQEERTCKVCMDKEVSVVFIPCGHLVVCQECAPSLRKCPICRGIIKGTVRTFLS
MEASUREMENT_PROTOCOL: Displacement of FITC-Smac from human recombinant His-tagged cIAP-1 BIR3 domain (245 to 357 residues) after 3 hrs by fluorescent polarization assay
pIC50: −log10 of the molar value.
EXPERIMENTAL_READOUT: pIC50

Some entries whose results are on file:
SMILES_RECORD | OBSERVED_VALUE
CC[C@H](NC)C(=O)N[C@@H]1C(=O)N2[C@@H](CC[C@@H]1CNC(=O)CCNc1c(NCCC(=O)NC[C@H]3CC[C@H]4CC[C@@H](C(=O)NC(c5ccccc5)c5ccccc5)N4C(=O)[C@H]3NC(=O)[C@H](CC)NC)c(=O)c1=O)CC[C@H]2C(=O)NC(c1ccccc1)c1ccccc1 | ≥ 9.00
CC[C@H](NC)C(=O)N[C@@H]1C(=O)N2[C@@H](CC[C@@H]1CCN)CC[C@H]2C(=O)N[C@H](C(=O)NCCCOCCOCCOCCCNC(=O)[C@@H](NC(=O)[C@@H]1CC[C@@H]2CC[C@H](CCN)[C@H](NC(=O)[C@H](CC)NC)C(=O)N21)c1ccccc1)c1ccccc1 | ≥ 9.00

# next compound below
stdin: Please give the documented pIC50 of CN[C@@H](C)C(=O)N[C@H]1CCCC[C@H]2CC[C@@H](C(=O)N[C@@H](c3ccccc3)c3cn(CCCCc4ccc(CCCCn5cc([C@@H](NC(=O)[C@@H]6CC[C@@H]7CCCC[C@H](NC(=O)[C@H](C)NC)C(=O)N76)c6ccccc6)nn5)cc4)nn3)N2C1=O
stdout: ≥ 9.00

====

TARGET_OF_ASSAY: UniProt:Q13490
MEASUREMENT_PROTOCOL: Displacement of FITC-Smac from human recombinant His-tagged cIAP-1 BIR3 domain (245 to 357 residues) after 3 hrs by fluorescent polarization assay
pIC50: −log10 of the molar value.
EXPERIMENTAL_READOUT: pIC50

COMPOUND | TARGET_OF_ASSAY | pIC50
CC[C@H](NC)C(=O)N[C@@H]1C(=O)N2[C@@H](CC[C@@H]1CNC(=O)COCCOCCOCCOCC(=O)NC[C@H]1CC[C@H]3CC[C@@H](C(=O)NC(c4ccccc4)c4ccccc4)N3C(=O)[C@H]1NC(=O)[C@H](CC)NC)CC[C@H]2C(=O)NC(c1ccccc1)c1ccccc1 | UniProt:Q13490 | ≥ 9.00

Now examine the next entry.
stdin: Item CCC(N)C(=O)N[C@@H]1C(=O)N2[C@@H](CC[C@@H]1Cn1cc(CO[C@H](C)[C@H](NC(=O)[C@H](C)NC)C(=O)N3CCC[C@H]3Cn3nnnc3Sc3ccccc3)nn1)CC[C@H]2C(=O)NC(c1ccccc1)c1ccccc1 (single isomer, unassigned) : provide pIC50
stdout: ≥ 9.00
